Assay System: α4β3δ GABAA receptors (Homo sapiens (Human), UniProt P28472+P48169)
Assay Method Text: Patch clamp electrophysiology (manual patch) of recombinant α4β3δ GABAA receptors in CHO cells
Assay type: cell-based
Condition Notes: 10 μM test article, GABA EC20 = 2 μM, read-out: GABA (α4β3δ) Manual patch in CHO, % efficacy at 10 μM
A collection of compounds and their measured Emax at 10 µM
Measured Endpoint: Emax at 10 µM

Compound: C[C@@]1(O)CC[C@@]2(C)[C@H](CC[C@@H]3[C@@H]2CC[C@]2(C)[C@@H](C(=O)Cn4cc(Cl)cn4)CC[C@@H]32)C1 [Compound 133]
Measured Endpoint: Emax at 10 µM
Observed Value: > 500%
//
Compound: C[C@@]1(O)CC[C@@]2(C)[C@@H](CC[C@@H]3[C@@H]2CC[C@]2(C)[C@@H](C(=O)Cn4nc5cc(F)cc(F)c5n4)CC[C@@H]32)C1 [Compound 234]
Measured Endpoint: Emax at 10 µM
Observed Value: 100 to 500%
//
Compound: CO[C@H]1C[C@@]2(C)[C@@H](CC[C@@H]3[C@@H]2CC[C@]2(C)[C@@H](C(=O)Cn4nccn4)CC[C@@H]32)C[C@@H]1O [Compound 2]
Measured Endpoint: Emax at 10 µM
Observed Value: 100 to 500%

* * *

Assay System: [35S]-TBPS binding, rat brain cortical membranes
Assay Method Text: Steroid inhibition of TBPS binding ([35S]-TBPS radioligand displacement)
Condition Notes: 3 nM [35S]-TBPS, 5 μM GABA
// values below are reported IC50
Measured Endpoint: IC50

Molecule: C[C@@]1(O)CC[C@@]2(C)[C@H](CC[C@@H]3[C@@H]2CC[C@]2(C)[C@@H](C(=O)Cn4cc(C#N)cn4)CC[C@@H]32)C1
Measured Endpoint: IC50
Observed Value: < 0.01 µM

Molecule: C[C@H](C(=O)[C@H]1CC[C@H]2[C@@H]3CC[C@@H]4C[C@](C)(O)CC[C@]4(C)[C@H]3CC[C@]12C)n1nc2ccccc2n1
Measured Endpoint: IC50
Observed Value: 0.01 to 0.05 µM

Molecule: C[C@@H](C(=O)[C@H]1CC[C@H]2[C@@H]3CC[C@@H]4C[C@](C)(O)CC[C@]4(C)[C@H]3CC[C@]12C)n1ccnn1
Measured Endpoint: IC50
Observed Value: 0.1 to 0.5 µM

Molecule: C[C@@]1(O)CC[C@@]2(C)[C@@H](CC[C@@H]3[C@@H]2CC[C@]2(C)[C@@H](C(=O)Cn4nc5ccc(F)c(F)c5n4)CC[C@@H]32)C1
Measured Endpoint: IC50
Observed Value: 0.01 to 0.05 µM

Molecule: C[C@@]1(O)CC[C@@]2(C)[C@@H](CC[C@@H]3[C@@H]2CC[C@]2(C)[C@@H](C(=O)Cn4cc5ccc(F)cc5n4)CC[C@@H]32)C1
Measured Endpoint: IC50
Observed Value: 0.01 to 0.05 µM

Molecule: C[C@@]1(O)CC[C@@]2(C)[C@@H](CC[C@@H]3[C@@H]2CC[C@]2(C)[C@@H](C(=O)Cn4cc(N)cn4)CC[C@@H]32)C1
Measured Endpoint: IC50
Observed Value: 0.1 to 0.5 µM

Molecule: CSc1ccc2nnn(CC(=O)[C@H]3CC[C@H]4[C@@H]5CC[C@H]6C[C@](C)(O)CC[C@]6(C)[C@H]5CC[C@]34C)c2c1
Measured Endpoint: IC50
Observed Value: < 0.01 µM

Molecule: C[C@H](C(=O)[C@H]1CC[C@H]2[C@@H]3CC[C@H]4C[C@](C)(O)CC[C@]4(C)[C@H]3CC[C@]12C)n1nnc2ccccc21
Measured Endpoint: IC50
Observed Value: > 0.5 µM
